target: Neu5Ac(a2-3)Gal(b1-3)GlcNAc(b1-3)Gal(b1-4)GlcNAc; experiment: glycan array binding signal (z-score within array); higher = stronger binding; conditions: glycan notation: IUPAC condensed, linker removed
This is one part of a sample in which the strongest signals are shown more often than they occur.
Measured property: glycan array binding signal (z-score)
Please give only the number in your answer, with no unit.

Before answering, review these 2 worked examples.
PEB1 (Campylobacter jejuni), Q0P9X8 (protein) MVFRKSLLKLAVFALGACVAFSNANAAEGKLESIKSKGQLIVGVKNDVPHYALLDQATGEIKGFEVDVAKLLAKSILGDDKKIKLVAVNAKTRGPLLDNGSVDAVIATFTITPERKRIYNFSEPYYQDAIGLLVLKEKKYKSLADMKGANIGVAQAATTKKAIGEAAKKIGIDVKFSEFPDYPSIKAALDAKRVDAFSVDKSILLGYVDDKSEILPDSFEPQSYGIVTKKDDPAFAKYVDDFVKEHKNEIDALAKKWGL = -0.813
Tp0751, 83732 (protein) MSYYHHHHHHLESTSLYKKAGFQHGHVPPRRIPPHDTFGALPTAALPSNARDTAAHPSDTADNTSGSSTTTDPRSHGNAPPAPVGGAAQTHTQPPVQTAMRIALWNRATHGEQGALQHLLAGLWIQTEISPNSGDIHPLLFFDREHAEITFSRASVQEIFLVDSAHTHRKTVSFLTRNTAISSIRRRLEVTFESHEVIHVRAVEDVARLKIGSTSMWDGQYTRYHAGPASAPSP = 0.058

Here's the next entry for you.
Check the records and state glycan array binding signal (z-score) for BC2L-A (Burkholderia cenocepacia), Q1BKJ8_BURCA (protein) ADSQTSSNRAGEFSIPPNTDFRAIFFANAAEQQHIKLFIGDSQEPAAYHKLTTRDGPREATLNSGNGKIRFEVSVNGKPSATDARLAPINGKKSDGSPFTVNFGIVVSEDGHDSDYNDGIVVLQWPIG -0.218

This collection of values is drawn from the supplement of paper PMC8728848.
